# Measured target: recombinant human Mcl-1 (residues 171-327) / Bim interaction (Homo sapiens (Human))
# Sequence (Q07820 171-327): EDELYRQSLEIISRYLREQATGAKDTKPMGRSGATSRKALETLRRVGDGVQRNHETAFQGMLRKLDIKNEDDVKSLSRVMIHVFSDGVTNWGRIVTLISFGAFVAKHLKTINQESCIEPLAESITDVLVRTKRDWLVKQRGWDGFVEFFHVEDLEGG
# Procedure details: biochemical
# Assay type: binding
# Measurement setup: TR-FRET, Mcl-1(171-327) / biotin-Bim (51-76); read-out: Mcl-1 HTRF IC50
Please respond with reported IC50 for every item in the list.
One number for each entry, in nM.

These recorded examples may help you get a feel for the data.
C[C@@H]1[C@@H](C)C/C=C/[C@](O)(CCCO)[C@@H]2CC[C@H]2CN2C[C@@]3(CCCc4cc(Cl)ccc43)COc3ccc(cc32)C(=O)NS1(=O)=O
0.41
CO[C@@]1(CCN(C)C)/C=C/C[C@H](C)[C@@H](C)S(=O)(=O)NC(=O)c2ccc3c(c2)N(C[C@@H]2CC[C@H]21)C[C@@]1(CCCc2cc(Cl)ccc21)CO3
0.164
C[C@@H]1[C@@H](C)C/C=C/[C@](O)([C@@H](C)C(=O)OC(C)(C)C)[C@@H]2CC[C@H]2CN2C[C@@]3(CCCc4cc(Cl)ccc43)COc3ccc(cc32)C(=O)NS1(=O)=O (single isomer, unassigned)
1.48
Cc1ncc([C@@]2(O)/C=C/C[C@H](C)[C@@H](C)S(=O)(=O)NC(=O)c3ccc4c(c3)N(C[C@@H]3CC[C@H]32)C[C@@]2(CCCc3cc(Cl)ccc32)CO4)n1C (single isomer, unassigned)
0.101

Query compound follows.
response.value for C#C[C@]1(OCCN2CCOCC2)/C=C/C[C@H](C)[C@@H](C)S(=O)(=O)NC(=O)c2ccc3c(c2)N(C[C@@H]2CC[C@H]21)C[C@@]1(CCCc2cc(Cl)ccc21)CO3 (field: IC50) = 0.803

The reported numbers originate from patent US10821115B2.
